Data origin: ChEMBL document CHEMBL3352173

experiment: Ratio of MIC for methicillin, quinolone-resistant Staphylococcus aureus to fraction unbound in human plasma; assay type: ADME
ASSAY_READOUT: Ratio

[
  {
    "MOLECULE": "COc1ccnc(-c2nc(N3CC[C@@H](NC(=O)c4[nH]c(C)c(Cl)c4Cl)[C@@H](OC)C3)sc2C(=O)O)n1",
    "SIGN": "=",
    "ASSAY_RESULT": 1.75
  },
  {
    "MOLECULE": "CO[C@H]1CN(c2nc(C(=O)O)c(C)s2)CC[C@H]1NC(=O)c1[nH]c(C)c(Cl)c1Cl",
    "SIGN": "=",
    "ASSAY_RESULT": 19
  },
  {
    "MOLECULE": "CO[C@H]1CN(c2nc(C(=O)NN3CCOCC3)c(C(=O)O)s2)CC[C@H]1NC(=O)c1[nH]c(C)c(Cl)c1Cl",
    "SIGN": "=",
    "ASSAY_RESULT": 56
  },
  {
    "MOLECULE": "CO[C@H]1CN(c2nc(C(=O)O)cs2)CC[C@H]1NC(=O)c1[nH]c(C)c(Cl)c1Cl",
    "SIGN": "=",
    "ASSAY_RESULT": 15
  },
  {
    "MOLECULE": "CNC(=O)c1sc(N2CC[C@@H](NC(=O)c3[nH]c(C)c(Cl)c3Cl)[C@@H](OC)C2)nc1C(=O)O",
    "SIGN": ">",
    "ASSAY_RESULT": 200
  },
  {
    "MOLECULE": "CO[C@H]1CN(c2nc(-c3cncc(OCCN(C)C)n3)c(C(=O)O)s2)CC[C@H]1NC(=O)c1[nH]c(C)c(Cl)c1Cl",
    "SIGN": "=",
    "ASSAY_RESULT": 5.1
  },
  {
    "MOLECULE": "COCC(COC)(COC)NC(=O)c1nc(N2CC[C@@H](NC(=O)c3[nH]c(C)c(Cl)c3Cl)[C@@H](OC)C2)sc1C(=O)O",
    "SIGN": "=",
    "ASSAY_RESULT": 0.66
  },
  {
    "MOLECULE": "CO[C@H]1CN(c2nc(C(=O)NC3COC(C)(C)OC3)c(C(=O)O)s2)CC[C@H]1NC(=O)c1[nH]c(C)c(Cl)c1Cl",
    "SIGN": "<",
    "ASSAY_RESULT": 1.8
  },
  {
    "MOLECULE": "CO[C@H]1CN(c2nc(-c3cncnc3)c(C(=O)O)s2)CC[C@H]1NC(=O)c1[nH]c(C)c(Cl)c1Cl",
    "SIGN": "=",
    "ASSAY_RESULT": 290
  },
  {
    "MOLECULE": "CO[C@H]1CN(c2nc(C(=O)N(C)C)c(C(=O)O)s2)CC[C@H]1NC(=O)c1[nH]c(C)c(Cl)c1Cl (racemic)",
    "SIGN": ">",
    "ASSAY_RESULT": 62
  },
  {
    "MOLECULE": "CO[C@H]1CN(c2nc(C(=O)NCC3OCCO3)c(C(=O)O)s2)CC[C@H]1NC(=O)c1[nH]c(C)c(Cl)c1Cl",
    "SIGN": "=",
    "ASSAY_RESULT": 3.6
  },
  {
    "MOLECULE": "CO[C@H]1CN(c2nc(CN3CCOCC3)c(C(=O)O)s2)CC[C@H]1NC(=O)c1[nH]c(C)c(Cl)c1Cl (racemic)",
    "SIGN": "=",
    "ASSAY_RESULT": 35
  },
  {
    "MOLECULE": "CO[C@H]1CN(c2nc(-c3ncccn3)c(C(=O)O)s2)CC[C@H]1NC(=O)c1[nH]c(C)c(Cl)c1Cl",
    "SIGN": "=",
    "ASSAY_RESULT": 1.25
  },
  {
    "MOLECULE": "CO[C@H]1CN(c2nc(C(=O)NCCN3CCOCC3)c(C(=O)O)s2)CC[C@H]1NC(=O)c1[nH]c(C)c(Cl)c1Cl",
    "SIGN": "=",
    "ASSAY_RESULT": 9.2
  },
  {
    "MOLECULE": "COCc1nc(N2CC[C@@H](NC(=O)c3[nH]c(C)c(Cl)c3Cl)[C@@H](OC)C2)sc1C(=O)O",
    "SIGN": "=",
    "ASSAY_RESULT": 29
  },
  {
    "MOLECULE": "COCn1ccnc1-c1nc(N2CC[C@@H](NC(=O)c3[nH]c(C)c(Cl)c3Cl)[C@@H](OC)C2)sc1C(=O)O",
    "SIGN": "<",
    "ASSAY_RESULT": 0.9
  },
  {
    "MOLECULE": "CO[C@H]1CN(c2nc(C(=O)O)c(C(N)=O)s2)CC[C@H]1NC(=O)c1[nH]c(C)c(Cl)c1Cl (racemic)",
    "SIGN": "=",
    "ASSAY_RESULT": 160
  },
  {
    "MOLECULE": "CO[C@H]1CN(c2nc(-c3nccn3C)c(C(=O)O)s2)CC[C@H]1NC(=O)c1[nH]c(C)c(Cl)c1Cl",
    "SIGN": "=",
    "ASSAY_RESULT": 5.2
  },
  {
    "MOLECULE": "CO[C@H]1CN(c2nc(-c3ccncn3)c(C(=O)O)s2)CC[C@H]1NC(=O)c1[nH]c(C)c(Cl)c1Cl",
    "SIGN": "=",
    "ASSAY_RESULT": 0.74
  },
  {
    "MOLECULE": "CO[C@H]1CN(c2nc3cccc(C(=O)O)c3s2)CC[C@H]1NC(=O)c1[nH]c(C)c(Cl)c1Cl",
    "SIGN": ">",
    "ASSAY_RESULT": 31
  },
  {
    "MOLECULE": "CO[C@H]1CN(c2nc(CO)c(C(=O)O)s2)CC[C@H]1NC(=O)c1[nH]c(C)c(Cl)c1Cl (racemic)",
    "SIGN": "=",
    "ASSAY_RESULT": 17
  },
  {
    "MOLECULE": "CO[C@H]1CN(c2nc(C(=O)NCC3(C)OCCO3)c(C(=O)O)s2)CC[C@H]1NC(=O)c1[nH]c(C)c(Cl)c1Cl",
    "SIGN": "=",
    "ASSAY_RESULT": 2.6
  },
  {
    "MOLECULE": "COCC(COC)NC(=O)c1nc(N2CC[C@@H](NC(=O)c3[nH]c(C)c(Cl)c3Cl)[C@@H](OC)C2)sc1C(=O)O",
    "SIGN": "=",
    "ASSAY_RESULT": 2.3
  },
  {
    "MOLECULE": "CO[C@H]1CN(c2nc(-c3ncc[nH]3)c(C(=O)O)s2)CC[C@H]1NC(=O)c1[nH]c(C)c(Cl)c1Cl",
    "SIGN": "=",
    "ASSAY_RESULT": 100
  },
  {
    "MOLECULE": "CO[C@H]1CN(c2nc(-c3cnccn3)c(C(=O)O)s2)CC[C@H]1NC(=O)c1[nH]c(C)c(Cl)c1Cl",
    "SIGN": "=",
    "ASSAY_RESULT": 0.46
  },
  {
    "MOLECULE": "CO[C@H]1CN(c2nc(C(N)=O)c(C(=O)O)s2)CC[C@H]1NC(=O)c1[nH]c(C)c(Cl)c1Cl",
    "SIGN": "=",
    "ASSAY_RESULT": 12
  },
  {
    "MOLECULE": "CO[C@H]1CN(c2nc(C)c(C(=O)O)s2)CC[C@H]1NC(=O)c1[nH]c(C)c(Cl)c1Cl",
    "SIGN": "=",
    "ASSAY_RESULT": 2.9
  },
  {
    "MOLECULE": "CO[C@H]1CN(c2nc(-c3nc(C)no3)c(C(=O)O)s2)CC[C@H]1NC(=O)c1[nH]c(C)c(Cl)c1Cl",
    "SIGN": "=",
    "ASSAY_RESULT": 8.7
  },
  {
    "MOLECULE": "CO[C@H]1CN(c2nc(C(C)=O)c(C(=O)O)s2)CC[C@H]1NC(=O)c1[nH]c(C)c(Cl)c1Cl",
    "SIGN": "=",
    "ASSAY_RESULT": 3.7
  },
  {
    "MOLECULE": "CO[C@H]1CN(c2nc(C(=O)NC[C@H](C)OC)c(C(=O)O)s2)CC[C@H]1NC(=O)c1[nH]c(C)c(Cl)c1Cl",
    "SIGN": "=",
    "ASSAY_RESULT": 1.1
  },
  {
    "MOLECULE": "CO[C@H]1CN(c2nc(-c3csc(N)n3)c(C(=O)O)s2)CC[C@H]1NC(=O)c1[nH]c(C)c(Cl)c1Cl",
    "SIGN": "<",
    "ASSAY_RESULT": 6.3
  }
]
